# METHOD: amyloid nucleation score (Sup35N fusion, yeast selection) (log enrichment); library NNK1; higher = more nucleation; inactive = no reads after selection;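 further: zero at mode of non-aggregating sequences after 7 days selection at 30°C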
Class membership depends on amyloid nucleation score alone; the intervals are class 0: < 0.3; class 1: ≥ 0.3 and < 1; class 2: ≥ 1

Enquiry: Into which bin does this substance go? IWMWEWQHCSEARKNMMWVS
Return: class 2

Enquiry: Into which bin does this substance go? YKGMSAHFGLILFDCCLNGS
Return: class 2

Enquiry: Into which bin does this substance go? KMKLRHTSCRFSREVTDVY
Return: class 1

Enquiry: Into which bin does this substance go? SMGVMSCNMSWSSAWCVMCV
Return: class 0

Enquiry: Into which bin does this substance go? IDIWVLLMNHGMKASPGDLE
Return: class 0

Enquiry: Into which bin does this substance go? TDVMSHGSAETGWCFLMSAF
Return: class 0

Enquiry: Into which bin does this substance go? MFSSVLIWKY
Return: class 2

Enquiry: Into which bin does this substance go? VLGRITAIFSVCGLVAVRDN
Return: class 2

Enquiry: Into which bin does this substance go? YYMRGTKRRIVRVYFWMLRC
Return: class 2

Enquiry: Into which bin does this substance go? YINTGVLYFGFCGL
Return: class 2

Enquiry: Into which bin does this substance go? RTIGFTEELP
Return: class 0

Enquiry: Into which bin does this substance go? VIHRIIDVLF
Return: class 0

Enquiry: Into which bin does this substance go? LFFVPMARVW
Return: class 0

Enquiry: Into which bin does this substance go? VQIWAAELMTDRRK
Return: class 1

Enquiry: Into which bin does this substance go? TLGAYQSCRGNVIMGQGTFV
Return: class 0

Enquiry: Into which bin does this substance go? SYFFGACCVGMCRLWNLFYS
Return: class 1

Enquiry: Into which bin does this substance go? VLRTGVH
Return: class 2

Enquiry: Into which bin does this substance go? AVEVYGVISRKLINVSDRIG
Return: class 1

* * *

# METHOD: amyloid nucleation score (Sup35N fusion, yeast selection) (log enrichment); library NNK1; higher = more nucleation; inactive = no reads after selection
Classification field: 1 (yes) = amyloid nucleation score at or over 0.4; 0 (no) = amyloid nucleation score under 0.4.

Enquiry: State whether the measured amyloid nucleation score reaches 0.4, counting equality as reaching it, for DVYVWGGCLVSIKVLWMAWG
Return: 0 (no)

Enquiry: State whether the measured amyloid nucleation score reaches 0.4, counting equality as reaching it, for SSKSAWYVRWSVSVQNKGRG
Return: 0 (no)

Enquiry: State whether the measured amyloid nucleation score reaches 0.4, counting equality as reaching it, for DCNFCL
Return: 0 (no)

Enquiry: State whether the measured amyloid nucleation score reaches 0.4, counting equality as reaching it, for NWGVSNRVVWGRVPMLSVPH
Return: 0 (no)

Enquiry: State whether the measured amyloid nucleation score reaches 0.4, counting equality as reaching it, for INGPCLLTYLPLAEVGCCLV
Return: 0 (no)

Enquiry: State whether the measured amyloid nucleation score reaches 0.4, counting equality as reaching it, for RMCLDGPITWFDRHK
Return: 1 (yes)

Enquiry: State whether the measured amyloid nucleation score reaches 0.4, counting equality as reaching it, for NTDSLLFNLISLMRNRERFK
Return: 0 (no)

Enquiry: State whether the measured amyloid nucleation score reaches 0.4, counting equality as reaching it, for QQLALPPWSCLWQ
Return: 0 (no)

Enquiry: State whether the measured amyloid nucleation score reaches 0.4, counting equality as reaching it, for RDSGLVGIPLTRTRIVKLST
Return: 0 (no)

Enquiry: State whether the measured amyloid nucleation score reaches 0.4, counting equality as reaching it, for RSMACVRLFDFQSQLYFRVF
Return: 0 (no)

Enquiry: State whether the measured amyloid nucleation score reaches 0.4, counting equality as reaching it, for IHKAKISWFLCYMLDDT
Return: 0 (no)

Enquiry: State whether the measured amyloid nucleation score reaches 0.4, counting equality as reaching it, for SCATVPCKM
Return: 1 (yes)

Enquiry: State whether the measured amyloid nucleation score reaches 0.4, counting equality as reaching it, for YARWVGVSKVRNTQICNSMR
Return: 0 (no)

Enquiry: State whether the measured amyloid nucleation score reaches 0.4, counting equality as reaching it, for RASSFAEIPVVSCDGGLVKW
Return: 0 (no)

Enquiry: State whether the measured amyloid nucleation score reaches 0.4, counting equality as reaching it, for ACNTSSIYALTFVCHLSVGV
Return: 1 (yes)

Enquiry: State whether the measured amyloid nucleation score reaches 0.4, counting equality as reaching it, for RTPVLSCWWFEYMELRGQST
Return: 0 (no)

Enquiry: State whether the measured amyloid nucleation score reaches 0.4, counting equality as reaching it, for INLVTKYHLSITCSHSCQA
Return: 1 (yes)

Enquiry: State whether the measured amyloid nucleation score reaches 0.4, counting equality as reaching it, for IQGGKNYRKQDHTRHVTTGT
Return: 0 (no)

Enquiry: State whether the measured amyloid nucleation score reaches 0.4, counting equality as reaching it, for TIVELFYDRSLR
Return: 1 (yes)

Enquiry: State whether the measured amyloid nucleation score reaches 0.4, counting equality as reaching it, for VNSKFMGKY
Return: 0 (no)

Enquiry: State whether the measured amyloid nucleation score reaches 0.4, counting equality as reaching it, for DYYYSFMKTANR
Return: 0 (no)

Enquiry: State whether the measured amyloid nucleation score reaches 0.4, counting equality as reaching it, for PWYTRLRRK
Return: 0 (no)

Enquiry: State whether the measured amyloid nucleation score reaches 0.4, counting equality as reaching it, for LRCLANVDSIICNSV
Return: 0 (no)

Enquiry: State whether the measured amyloid nucleation score reaches 0.4, counting equality as reaching it, for FCSRTRMTICVLCYIHLQGR
Return: 1 (yes)

Enquiry: State whether the measured amyloid nucleation score reaches 0.4, counting equality as reaching it, for NGCLITSWDYCSCRAVYQLT
Return: 0 (no)

Enquiry: State whether the measured amyloid nucleation score reaches 0.4, counting equality as reaching it, for RHGKASSSEWNAYRARDRGV
Return: 1 (yes)

Enquiry: State whether the measured amyloid nucleation score reaches 0.4, counting equality as reaching it, for SKGFDDESTAGSFFKLMLLY
Return: 0 (no)

Enquiry: State whether the measured amyloid nucleation score reaches 0.4, counting equality as reaching it, for MRTRWSIIMDVRYDNSV
Return: 1 (yes)

Enquiry: State whether the measured amyloid nucleation score reaches 0.4, counting equality as reaching it, for DWHGLTKVMITW
Return: 1 (yes)

Enquiry: State whether the measured amyloid nucleation score reaches 0.4, counting equality as reaching it, for FRKLAIFHLAE
Return: 0 (no)

Enquiry: State whether the measured amyloid nucleation score reaches 0.4, counting equality as reaching it, for GLYYSFRFYTFSVYRALRGS
Return: 0 (no)

Enquiry: State whether the measured amyloid nucleation score reaches 0.4, counting equality as reaching it, for TSAVQIVTLQLVLSWMRYHM
Return: 1 (yes)

Enquiry: State whether the measured amyloid nucleation score reaches 0.4, counting equality as reaching it, for LSQNLAPGIVFFAV
Return: 0 (no)

Enquiry: State whether the measured amyloid nucleation score reaches 0.4, counting equality as reaching it, for QLSFCYHLCWVICEGMVLEV
Return: 0 (no)

Enquiry: State whether the measured amyloid nucleation score reaches 0.4, counting equality as reaching it, for CRMGFNQLWLKLRNRCVGLG
Return: 0 (no)

Enquiry: State whether the measured amyloid nucleation score reaches 0.4, counting equality as reaching it, for RLPLHHTCYVIC
Return: 1 (yes)

Enquiry: State whether the measured amyloid nucleation score reaches 0.4, counting equality as reaching it, for YCTLRESKPPMDGSM
Return: 0 (no)

Enquiry: State whether the measured amyloid nucleation score reaches 0.4, counting equality as reaching it, for RMWRYASCHYI
Return: 1 (yes)

Enquiry: State whether the measured amyloid nucleation score reaches 0.4, counting equality as reaching it, for TYWNVLNAVGQALPSIYGIG
Return: 1 (yes)

Enquiry: State whether the measured amyloid nucleation score reaches 0.4, counting equality as reaching it, for KYMFRARCKRMTFGYPG
Return: 0 (no)

Enquiry: State whether the measured amyloid nucleation score reaches 0.4, counting equality as reaching it, for VIQRTYCGRVLNLHALI
Return: 0 (no)

Enquiry: State whether the measured amyloid nucleation score reaches 0.4, counting equality as reaching it, for VHLSGFVSLNLTVVSIRCIA
Return: 1 (yes)

Enquiry: State whether the measured amyloid nucleation score reaches 0.4, counting equality as reaching it, for SICSFLFR
Return: 1 (yes)

Enquiry: State whether the measured amyloid nucleation score reaches 0.4, counting equality as reaching it, for EDNRKIRRVMSIQS
Return: 0 (no)

Enquiry: State whether the measured amyloid nucleation score reaches 0.4, counting equality as reaching it, for IAPTFSYMMERSLFTVGYDM
Return: 0 (no)

Enquiry: State whether the measured amyloid nucleation score reaches 0.4, counting equality as reaching it, for EYNYLDDTCWLGQVGRWLWF
Return: 1 (yes)

Enquiry: State whether the measured amyloid nucleation score reaches 0.4, counting equality as reaching it, for DIYIMSNGLGYYFFSTNVRM
Return: 1 (yes)

Enquiry: State whether the measured amyloid nucleation score reaches 0.4, counting equality as reaching it, for GSVCRCSDAPVSFRVGNSVG
Return: 0 (no)

Enquiry: State whether the measured amyloid nucleation score reaches 0.4, counting equality as reaching it, for YWYNNAWASLWFQAWVDWYI
Return: 1 (yes)

Enquiry: State whether the measured amyloid nucleation score reaches 0.4, counting equality as reaching it, for AYLADCFPDVSTNWVRAISA
Return: 0 (no)

Enquiry: State whether the measured amyloid nucleation score reaches 0.4, counting equality as reaching it, for GWRSGVWLGSV
Return: 0 (no)

Enquiry: State whether the measured amyloid nucleation score reaches 0.4, counting equality as reaching it, for NSVISMAPYLFTCIENVKSK
Return: 0 (no)

Enquiry: State whether the measured amyloid nucleation score reaches 0.4, counting equality as reaching it, for SPLSYAI
Return: 1 (yes)

Enquiry: State whether the measured amyloid nucleation score reaches 0.4, counting equality as reaching it, for LDFKDSGLYLPYKGNYGSV
Return: 0 (no)

Enquiry: State whether the measured amyloid nucleation score reaches 0.4, counting equality as reaching it, for GIVGGDQYMLFNLYVGFSYP
Return: 1 (yes)

Enquiry: State whether the measured amyloid nucleation score reaches 0.4, counting equality as reaching it, for AIDSVNMTTLRWM
Return: 0 (no)

Enquiry: State whether the measured amyloid nucleation score reaches 0.4, counting equality as reaching it, for GYGIGDGRVHTQNKVGCYGG
Return: 1 (yes)

Enquiry: State whether the measured amyloid nucleation score reaches 0.4, counting equality as reaching it, for IRVSFIVQSCILSALEDALN
Return: 1 (yes)

Enquiry: State whether the measured amyloid nucleation score reaches 0.4, counting equality as reaching it, for TNSPKKGMNGYGFNATVWTS
Return: 1 (yes)

Enquiry: State whether the measured amyloid nucleation score reaches 0.4, counting equality as reaching it, for YGVVYNIWHFIEMKGDYTHA
Return: 1 (yes)

Enquiry: State whether the measured amyloid nucleation score reaches 0.4, counting equality as reaching it, for LWMYYESFF
Return: 1 (yes)

Enquiry: State whether the measured amyloid nucleation score reaches 0.4, counting equality as reaching it, for VQGYKVRLSGRNFGCNCASK
Return: 0 (no)

Enquiry: State whether the measured amyloid nucleation score reaches 0.4, counting equality as reaching it, for IFYYNRCWLTRYRVICLESI
Return: 0 (no)

Enquiry: State whether the measured amyloid nucleation score reaches 0.4, counting equality as reaching it, for FRKCVGAQGGSGSWNGCPSE
Return: 1 (yes)

Enquiry: State whether the measured amyloid nucleation score reaches 0.4, counting equality as reaching it, for YAITRSAVICSNLALNMEC
Return: 1 (yes)

Enquiry: State whether the measured amyloid nucleation score reaches 0.4, counting equality as reaching it, for TKVGFFQRLGYEQVCNCKML
Return: 0 (no)

Enquiry: State whether the measured amyloid nucleation score reaches 0.4, counting equality as reaching it, for MSMDWICVTTYKAWSARLER
Return: 1 (yes)

The origin of these recorded values is the supplement of paper PMC12042874.
